target: Serine/threonine-protein kinase pim-2 (Homo sapiens); experiment: Inhibition of recombinant full length human GST-tagged PIM2 expressed in baculovirus expression system at 500 nM by Z-LYTE assay relative to control
quantity kind: inhibition (%)

Past entries and their recorded results:
[
  {
    "given smiles": "OCc1ccc(-c2cc3c(N[C@H](CO)c4ccccc4)ncnc3[nH]2)cc1",
    "inhibition [%]": 10
  },
  {
    "given smiles": "CCC(=O)Nc1ccc(-c2c[nH]c3ncnc(N[C@H](C)c4ccccc4)c23)cc1",
    "inhibition [%]": 8
  }
]

a. OC[C@@H](Nc1ncnc2sc(-c3ccc(O)cc3)cc12)c1ccccc1
b. CN(C)CCn1cc(-c2cccc(O)c2)c2c(N)ncnc21
Look at a and b . Which one has the lower recorded inhibition number? Mark your selection by writing its label.
a
(a: 3%, b: 5%)
